All figures here come from BindingDB's records for patent WO2025049746.

# assayed-system: Bifunctional 3'-5' exonuclease/ATP-dependent helicase WRN [480-1251] (UniProt Q14191)
# Construct: 480-1251
# Sequence (Q14191 480-1251): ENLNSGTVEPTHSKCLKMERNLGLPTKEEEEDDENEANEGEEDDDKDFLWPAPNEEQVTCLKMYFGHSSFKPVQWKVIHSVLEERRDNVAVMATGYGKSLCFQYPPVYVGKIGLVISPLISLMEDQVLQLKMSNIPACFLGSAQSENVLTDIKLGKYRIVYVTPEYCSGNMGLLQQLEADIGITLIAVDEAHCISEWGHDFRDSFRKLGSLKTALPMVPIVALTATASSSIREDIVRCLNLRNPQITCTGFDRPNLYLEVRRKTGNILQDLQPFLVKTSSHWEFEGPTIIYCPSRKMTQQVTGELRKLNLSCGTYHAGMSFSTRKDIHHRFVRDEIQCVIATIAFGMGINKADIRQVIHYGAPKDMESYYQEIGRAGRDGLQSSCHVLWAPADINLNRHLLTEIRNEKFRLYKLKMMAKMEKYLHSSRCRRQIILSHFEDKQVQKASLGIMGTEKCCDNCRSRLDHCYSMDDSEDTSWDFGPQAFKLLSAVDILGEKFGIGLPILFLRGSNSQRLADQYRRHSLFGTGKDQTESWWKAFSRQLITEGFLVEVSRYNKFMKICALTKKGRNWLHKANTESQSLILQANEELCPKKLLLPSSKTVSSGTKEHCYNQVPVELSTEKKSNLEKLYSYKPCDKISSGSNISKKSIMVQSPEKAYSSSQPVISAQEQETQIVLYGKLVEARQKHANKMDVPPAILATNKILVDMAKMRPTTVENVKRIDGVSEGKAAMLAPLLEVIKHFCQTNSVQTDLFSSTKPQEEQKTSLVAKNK
# assay-overview: Biochemical Activity Assays
pIC50: −log10 of the molar value.

compound | assayed-system | pIC50
CCc1c(N2CCN(C(=O)c3ncnc(C)c3O)CC2)c(=O)n2nc(C3=CCOCC3)nc2n1CC(=O)Nc1ccc(C(F)(F)F)c2cccnc12 [WO2025049746, Example 365] | Bifunctional 3'-5' exonuclease/ATP-dependent helicase WRN [480-1251] (UniProt Q14191) | 7.36
CCc1c(N2CCN(C(=O)c3ncnc(C)c3O)CC2)c(=O)n2nc(-c3ccc4c(c3)CCC(=O)N4C)nc2n1CC(=O)Nc1ccc(C(F)(F)F)cc1Cl [WO2025049746, Example 324] | Bifunctional 3'-5' exonuclease/ATP-dependent helicase WRN [480-1251] (UniProt Q14191) | 7.49
CCc1c(N2CCN(C(=O)c3ncnc(C)c3O)CC2)c(=O)n2nc(-c3ccn4nc(C)cc4c3)nc2n1CC(=O)Nc1ccc(C(F)(F)F)cc1Cl [WO2025049746, Example 247] | Bifunctional 3'-5' exonuclease/ATP-dependent helicase WRN [480-1251] (UniProt Q14191) | 7.57
CCc1c(N2CCN(C(=O)c3ncnc(C)c3O)CC2)c(=O)n2nc(N(C)C)nc2n1CC(=O)Nc1ccc(C(F)(F)F)cc1Cl [WO2025049746, Example 30] | Bifunctional 3'-5' exonuclease/ATP-dependent helicase WRN [480-1251] (UniProt Q14191) | 7.43
CCc1c(N2CCN(C(=O)c3ncnc(C)c3O)CC2)c(=O)n2nc(-c3cccc4c3OCO4)nc2n1CC(=O)Nc1ccc(C(F)(F)F)cc1Cl [WO2025049746, Example 16] | Bifunctional 3'-5' exonuclease/ATP-dependent helicase WRN [480-1251] (UniProt Q14191) | 7.65
CCc1c(N2CCN(C(=O)c3ncnc(C)c3O)CC2)c(=O)n2nc(-c3ccc4c(c3)CCO[C@H]4C)nc2n1CC(=O)Nc1ccc(C(F)(F)F)cc1Cl [WO2025049746, Example 229] | Bifunctional 3'-5' exonuclease/ATP-dependent helicase WRN [480-1251] (UniProt Q14191) | 7.52
CCc1c(N2CCN(C(=O)c3cc4nnn(C)c4cc3O)CC2)c(=O)n2nc(-c3ccc4c(c3)COC4)nc2n1CC(=O)Nc1ccc(C(F)(F)F)cc1Cl [WO2025049746, Example 433] | Bifunctional 3'-5' exonuclease/ATP-dependent helicase WRN [480-1251] (UniProt Q14191) | 6.96
CCc1c(N2CCN(C(=O)c3ncnc(C)c3O)CC2)c(=O)n2nc(-c3ccc4c(c3)C(C)CO4)nc2n1CC(=O)Nc1ccc(C(F)(F)F)cc1Cl (centres undefined) [WO2025049746, Example 170] | Bifunctional 3'-5' exonuclease/ATP-dependent helicase WRN [480-1251] (UniProt Q14191) | 7.39
CCc1c(N2CCN(C(=O)c3ncnc(C)c3O)CC2)c(=O)n2nc(-c3cn4c(n3)COCC4)nc2n1CC(=O)Nc1ccc(C(F)(F)F)cc1Cl [WO2025049746, Example 153] | Bifunctional 3'-5' exonuclease/ATP-dependent helicase WRN [480-1251] (UniProt Q14191) | 6.78
CCc1c(N2CCN(C(=O)c3nc4c(cc3O)CCOC4)CC2)c(=O)n2nc(-c3ccc4c(c3)COC4)nc2n1CC(=O)Nc1ccc(C(F)(F)F)cc1Cl [WO2025049746, Example 441] | Bifunctional 3'-5' exonuclease/ATP-dependent helicase WRN [480-1251] (UniProt Q14191) | 7.24
CCc1c(N2CCN(C(=O)c3ncnc(C)c3O)CC2)c(=O)n2nc(-c3cc(F)c4c(c3)COC4)nc2n1CC(=O)Nc1ccc(C(F)(F)F)cc1Cl [WO2025049746, Example 202] | Bifunctional 3'-5' exonuclease/ATP-dependent helicase WRN [480-1251] (UniProt Q14191) | 7.49
CCc1c(N2CCN(C(=O)c3ncnc(C)c3O)CC2)c(=O)n2nc(-c3ccc4c(c3)CN(C)CC4)nc2n1CC(=O)Nc1ccc(C(F)(F)F)cc1Cl [WO2025049746, Example 308] | Bifunctional 3'-5' exonuclease/ATP-dependent helicase WRN [480-1251] (UniProt Q14191) | 7.31
CCc1c(N2CCN(C(=O)c3ncnc(C)c3O)CC2)c(=O)n2nc(-c3cccc4c3COCC4)nc2n1CC(=O)Nc1c(Cl)cc(C(F)(F)F)c2c1CC2 [WO2025049746, Example 390] | Bifunctional 3'-5' exonuclease/ATP-dependent helicase WRN [480-1251] (UniProt Q14191) | 7.28
CCc1c(N2CCN(C(=O)c3ncnc(C)c3O)[C@H](C)C2)c(=O)n2nc(-c3ccc4c(c3)COC4(C)C)nc2n1CC(=O)Nc1ccc(C(F)(F)F)cc1Cl [WO2025049746, Example 457] | Bifunctional 3'-5' exonuclease/ATP-dependent helicase WRN [480-1251] (UniProt Q14191) | 7.40
